Assay type: biochemical, human
measurementSetup: 0.77 mM peptide in factor B-depleted serum; standardized to water or DMSO; Table 6
Description: Peptides were diluted to 0.77 mM in factor B-depleted human sera (Complement Technologies, Inc.) and incubated for 1 hour at 37° C. […] The procedure was stopped by the addition of 4.0 ml of GVBS^−− centrifuged for 5 minutes at 1,620×g, and the absorbance of the supernatants was read at 412 nm in a spectrophotometer. […] The final concentration of peptide in factor B-depleted serum was 0.77 mM. Each peptide was evaluated in triplicate and the mean values are reported. […]
readout: hemolysis (%)
Give just the number in %; leave the unit off.

Query: Param item = CC[C@H](C)[C@H](N)C(=O)N[C@@H](C)C(=O)N[C@@H](CC(C)C)C(=O)N[C@H](C(=O)N[C@@H](CC(C)C)C(=O)N[C@@H](CCC(=O)O)C(=O)N1CCC[C@H]1C(=O)N[C@H](C(=O)N[C@@H](CS)C(=O)N[C@@H](CS)C(=O)N[C@@H](CCC(N)=O)C(=O)N[C@@H](CCC(=O)O)C(=O)N[C@@H](CCCNC(=N)N)C(=O)N[C@@H](C)C(=O)N[C@@H](C)C(=O)NCCOCCOCCOCCOCCOCCOCCOCCOCCOCCOCCOCCOCCOCCOCCOCCOCCOCCOCCOCCOCCOCCOCCOCCOCCC(=O)O)[C@@H](C)CC)[C@@H](C)CC [PA-dPEG24] ; retrieve measured hemolysis.
Reply: 2.99

Query: Next up: CC[C@H](C)[C@H](N)C(=O)N[C@@H](C)C(=O)N[C@@H](CC(C)C)C(=O)N[C@H](C(=O)N[C@@H](CC(C)C)C(=O)N[C@@H](CCC(=O)O)C(=O)N1CCC[C@H]1C(=O)N[C@H](C(=O)N[C@@H](CS)C(=O)N[C@@H](CS)C(=O)N[C@@H](CCC(N)=O)C(=O)N[C@@H](CCC(=O)O)C(=O)N[C@@H](CCCNC(=N)N)C(=O)N[C@@H](C)C(=O)N[C@@H](C)C(=O)NCCOCCOCCC(=O)O)[C@@H](C)CC)[C@@H](C)CC [PA-dPEG02]
Reply: 11.6

Query: Do the same for CC[C@H](C)[C@H](N)C(=O)N[C@@H](C)C(=O)N[C@@H](CC(C)C)C(=O)N[C@H](C(=O)N[C@@H](CC(C)C)C(=O)N[C@@H](CCC(=O)O)C(=O)N1CCC[C@H]1C(=O)N[C@H](C(=O)N[C@@H](CS)C(=O)N[C@@H](CS)C(=O)N[C@@H](CCC(N)=O)C(=O)N[C@@H](CCC(=O)O)C(=O)N[C@@H](CCCNC(=N)N)C(=O)N[C@@H](C)C(=O)N[C@@H](C)C(=O)NCCOCCOCCOCCOCCOCCOCCOCCOCCOCCOCCOCCOCCOCCOCCOCCOCCOCCOCCOCCOCCC(=O)O)[C@@H](C)CC)[C@@H](C)CC [PA-dPEG20] please
Reply: 11.4

Query: Also CC[C@H](C)[C@H](N)C(=O)N[C@@H](C)C(=O)N[C@@H](CC(C)C)C(=O)N[C@H](C(=O)N[C@@H](CC(C)C)C(=O)N[C@@H](CCC(=O)O)C(=O)N1CCC[C@H]1C(=O)N[C@H](C(=O)N[C@@H](CS)C(=O)N[C@@H](CS)C(=O)N[C@@H](CCC(N)=O)C(=O)N[C@@H](CCC(=O)O)C(=O)N[C@@H](CCCNC(=N)N)C(=O)N[C@@H](C)C(=O)N[C@@H](C)C(=O)NCCOCCOCCOCCC(=O)O)[C@@H](C)CC)[C@@H](C)CC [PA-dPEG03] , if possible.
Reply: 12.6
